TARGET ENTITY: T1, hTRF2-DBD K447R (Homo sapiens, UniProt Q15554 SEQ:1-63)
T1 chain: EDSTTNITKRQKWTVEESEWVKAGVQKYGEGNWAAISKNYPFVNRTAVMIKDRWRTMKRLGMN
ASSAY COMMENT: SPR; pH 6.8, 180 mM KCl, 293 K
RUN PARAMETERS: tags: N-terminal Met added; untagged, E. coli BL21(DE3) pET23b; label: biotin (13mer on SA chip)
READOUT LABEL: Kd (µM)
Numbers only, in µM.

Worked examples, 3 binders total:
G7C (dsDNA) DNA 1: GTTAGGCTTAGGG DNA 2: CCCTAAGCCTAAC : 24.5
T9G (dsDNA) DNA 1: GTTAGGGTGAGGG DNA 2: CCCTCACCCTAAC : 37
tr13 (dsDNA) DNA 1: GTTAGGGTTAGGG DNA 2: CCCTAACCCTAAC : 0.297

Now, please, on to the next binder.
Per the record, T3G (dsDNA) DNA 1: GTGAGGGTTAGGG DNA 2: CCCTAACCCTCAC has Kd of 2.19
